Assay: Inhibition of HCV NS5B deltaC21 polymerase assessed as [3H]GTP incorporation after 3 hrs by scintillation proximity assay
Design: species or system Hepacivirus hominis
Settings: read-out: IC50
Readout Kind: IC50 (nM)
Express your answer in nM, writing the number without its unit.

Query O=C(O)c1cc2[nH]c(-c3ccc(OCc4ccccc4)cc3)c(CC3CCCCC3)c(=O)n2n1 yields IC50 of 400

Query O=C(O)c1cc2[nH]c(-c3ccc(OCc4ccccc4)cc3)c(CCC3CCCCC3)c(=O)n2n1 yields IC50 of 170

Query O=C(O)c1cc2[nH]c(-c3ccc(OCc4ccccc4)cc3)c(Cc3ccccc3)c(=O)n2n1 yields IC50 of 4200

Query O=C(O)c1cc2[nH]c(-c3ccc(OCc4ccccc4)cc3)c(CCc3ccccc3)c(=O)n2n1 yields IC50 of 1200
